These measurements were taken from paper PMC7038937.

# experimental_system: dsRBD4 Q212A Q215A (Homo sapiens, UniProt O95793-2 205-274, Q212A;Q215A)
# Sequence (O95793 286-355 Q293A/Q296A): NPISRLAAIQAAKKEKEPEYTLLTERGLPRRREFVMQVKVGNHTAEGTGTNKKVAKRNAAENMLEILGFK
# protocol_description: fluorescence anisotropy
experimental_endpoint: Kd (µM)
The reply should contain only the number, in µM.

Kd for GGCAGAAGCUGCCUCUUCGGAGGCAGUUUCUGCC (structured_RNA) [top 2/3 ARF1 SBS (sARF1 SBS)] ?
0.121
